Examples of binders with documented koff follow.
# system_tested: T1, cynomolgus monkey BCMA (cynomolgus monkey, UniProt A0A2K5UD97 1-53)
# T1 construct: Soluble analyte in SPR; construct not described; also called cyBCMA; Cyno BCMA
# protocol_summary: SPR, IgG on chip, cyBCMA analyte
experimental_readout: koff

binder: COMBO_Rd4_0.6nM_C19 (antibody, V domains shown, IgG) VH: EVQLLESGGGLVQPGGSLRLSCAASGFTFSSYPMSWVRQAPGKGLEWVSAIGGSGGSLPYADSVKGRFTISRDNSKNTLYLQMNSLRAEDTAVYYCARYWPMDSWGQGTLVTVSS VL: EIVLTQSPGTLSLSPGERATLSCRASQSVSAVYLAWYQQKPGQAPRLLMYDASIRATGIPDRFSGSGSGTDFTLTISRLEPEDFAVYYCQQYRAWPLTFGQGTKVEIK
experimental_readout: koff
recorded_result: 0.000979 s⁻¹
--
binder: A02_Rd4_6nM_C07 (antibody, V domains shown, IgG) VH: EVQLLESGGGLVQPGGSLRLSCAASGFTFSSYAMNWVRQAPGKGLEWVSAIGGSGGSLPYADSVKGRFTISRDNSKNTLYLQMNSLRAEDTAVYYCARYWPMDSWGQGTLVTVSS VL: EIVLTQSPGTLSLSPGERATLSCRASQSVSPYYLAWYQQKPGQAPRLLMYDASIRATGIPDRFSGSGSGTDFTLTISRLEPEDFAVYYCQQYERWPLTFGQGTKVEIK
experimental_readout: koff
recorded_result: 0.000786 s⁻¹
